- assay-system: T1, Human soluble Her-2 (Bender Med Systems, Austria) (human, UniProt P04626 23-652, biotinylated (sulfo-LC-LC-biotin) when used for yeast FACS staining; unlabelled in ELISA and SPR)
- T1 construct: extracellular domain; given only as 'human soluble Her-2'; also called recombinant antigen Her2 (Bendermedsystems); Her2-biotin
- experimental-protocol: ELISA, human soluble Her-2 coated at 2 ug/ml, Fcab titrated, anti-Fc CH2-HRP detection
Would you mind telling me the reported pEC50 of each entry?
API: returns pEC50 as number; meaning -log10 of concentration in mol/L.

Query ABEFs0101 (designed binder, If read literally (148-197) a Val would be doubled) EPKSCDKTHTCPPCPAPELLGGPSVFLFPPKPKDTLMISRTPEVTCVVVDVSHEDPEVKFNWYVDGVEVHNAKTKPREEQYNSTYRVVSVLTVLHQDWLNGKEYKCKVSNKALPAPIEKTISKAKGQPREPQVYTLPPSRDEYLSADVSLTCLVKGFYPSDIAVEWESNGQPENNYKTTPPVLDSDGSFFLYSKLTVARYSPSMWRWGHGNVFSCSVMHEALHNHYTQKSLSLSPGK yields pEC50 of 7.79

Query H10-03-6 (designed binder, also called H10-03-6 clone) EPKSCDKTHTCPPCPAPELLGGPSVFLFPPKPKDTLMISRTPEVTCVVVDVSHEDPEVKFNWYVDGVEVHNAKTKPREEQYNSTYRVVSVLTVLHQDWLNGKEYKCKVSNKALPAPIEKTISKAKGQPREPQVYTLPPSRDEYLYGDVSLTCLVKGFYPSDIAVEWESNGQPENNYKTTPPVLDSDGSFFLYSKLTVPRHSARMWRWAHGNVFSCSVMHEALHNHYTQKSLSLSPGK yields pEC50 of 8.32
